Measured inhibition at 0.2 µM of individual entries
- system: CDK4 (Homo sapiens, UniProt P11802)
- Construct: endogenous in cells; host or cells: Calu-1
- Sequence (P11802 2-303 limits assumed): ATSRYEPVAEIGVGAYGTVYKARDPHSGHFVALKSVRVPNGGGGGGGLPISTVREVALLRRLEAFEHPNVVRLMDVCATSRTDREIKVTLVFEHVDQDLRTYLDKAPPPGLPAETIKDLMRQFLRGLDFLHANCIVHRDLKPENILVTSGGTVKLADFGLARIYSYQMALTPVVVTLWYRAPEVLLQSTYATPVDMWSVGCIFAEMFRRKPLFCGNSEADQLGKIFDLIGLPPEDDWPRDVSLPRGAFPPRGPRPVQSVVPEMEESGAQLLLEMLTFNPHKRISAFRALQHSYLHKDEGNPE
- Sequence (P24385 whole entry partner): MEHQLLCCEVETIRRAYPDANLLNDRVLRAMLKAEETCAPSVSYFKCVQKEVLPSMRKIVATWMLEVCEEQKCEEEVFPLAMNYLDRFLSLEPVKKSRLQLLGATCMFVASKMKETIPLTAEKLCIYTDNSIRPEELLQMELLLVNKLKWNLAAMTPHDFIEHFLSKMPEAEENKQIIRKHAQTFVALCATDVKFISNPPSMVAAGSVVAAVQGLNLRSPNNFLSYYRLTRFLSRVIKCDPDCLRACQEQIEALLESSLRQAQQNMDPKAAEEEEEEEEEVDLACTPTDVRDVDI
- Sequence (Q16531 2-1140 limits assumed, further chain): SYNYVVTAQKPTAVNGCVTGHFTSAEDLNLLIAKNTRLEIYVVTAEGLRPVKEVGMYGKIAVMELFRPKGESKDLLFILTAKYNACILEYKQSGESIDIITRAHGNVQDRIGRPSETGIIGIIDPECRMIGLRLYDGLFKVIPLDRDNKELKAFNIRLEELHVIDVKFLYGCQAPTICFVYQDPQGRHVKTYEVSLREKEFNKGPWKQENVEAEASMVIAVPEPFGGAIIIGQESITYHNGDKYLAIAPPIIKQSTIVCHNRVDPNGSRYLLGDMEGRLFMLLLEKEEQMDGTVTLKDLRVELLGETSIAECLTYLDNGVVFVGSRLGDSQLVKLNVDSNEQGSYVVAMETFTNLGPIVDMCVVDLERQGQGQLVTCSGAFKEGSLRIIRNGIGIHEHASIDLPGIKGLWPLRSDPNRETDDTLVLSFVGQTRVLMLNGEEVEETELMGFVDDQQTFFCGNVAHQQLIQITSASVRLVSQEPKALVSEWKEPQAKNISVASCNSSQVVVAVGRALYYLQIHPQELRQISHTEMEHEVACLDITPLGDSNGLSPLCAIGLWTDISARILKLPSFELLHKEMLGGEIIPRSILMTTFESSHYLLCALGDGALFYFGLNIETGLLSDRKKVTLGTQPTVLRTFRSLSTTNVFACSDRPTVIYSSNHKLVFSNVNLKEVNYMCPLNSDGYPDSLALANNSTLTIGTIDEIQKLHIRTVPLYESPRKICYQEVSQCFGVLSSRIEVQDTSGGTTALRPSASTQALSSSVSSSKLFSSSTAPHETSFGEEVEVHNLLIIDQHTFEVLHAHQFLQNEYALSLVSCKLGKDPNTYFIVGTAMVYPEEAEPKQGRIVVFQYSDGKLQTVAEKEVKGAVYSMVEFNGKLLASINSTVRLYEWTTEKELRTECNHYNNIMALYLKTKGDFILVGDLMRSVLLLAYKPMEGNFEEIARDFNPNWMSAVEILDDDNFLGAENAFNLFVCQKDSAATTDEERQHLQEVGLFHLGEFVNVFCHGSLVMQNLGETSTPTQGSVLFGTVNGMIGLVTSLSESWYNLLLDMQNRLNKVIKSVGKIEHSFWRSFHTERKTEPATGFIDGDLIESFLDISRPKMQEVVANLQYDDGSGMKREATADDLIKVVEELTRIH
- measurement-description: CDK4 percentage degradation in Calu-1 cells (immunoblotting)
- Assay type: cell-based
- condition-summary: Calu-1 cells, 200 nM, 16 hours; read-out: CDK4 Degradation (200 nM)

| structure-string | test-value |
| --- | --- |
| CC(=O)c1c(C)c2cnc(Nc3ccc(N4CCN(CC(=O)NCCOCCOCCC(=O)Nc5cc6c(cc5C(=O)Nc5ccc(C)cn5)CCCN6)CC4)cn3)nc2n(C2CCCC2)c1=O | 50 to 80% |

Per the reported CDK4 (Homo sapiens, UniProt P11802) data, CC(=O)c1c(C)c2cnc(Nc3ccc(N4CCN(CC(=O)NCCOCCOCCC(=O)Nc5ccccc5C(=O)Nc5ncc(C)cn5)CC4)cn3)nc2n(C2CCCC2)c1=O has inhibition at 0.2 µM of < 30%

Per the reported CDK4 (Homo sapiens, UniProt P11802) data, CC(=O)c1c(C)c2cnc(Nc3ccc(N4CCN(CC(=O)NCCCCNc5cccc(C(=O)Nc6nc(C)c(C)s6)c5C)CC4)cn3)nc2n(C2CCCC2)c1=O has inhibition at 0.2 µM of < 30%

Per the reported CDK4 (Homo sapiens, UniProt P11802) data, CC(=O)c1c(C)c2cnc(Nc3ccc(N4CCN(CC(=O)NCCOCCOCCC(=O)Nc5ccc(F)cc5C(=O)Nc5nc(C)c(C)s5)CC4)cn3)nc2n(C2CCCC2)c1=O has inhibition at 0.2 µM of 50 to 80%

Per the reported CDK4 (Homo sapiens, UniProt P11802) data, CC(=O)c1c(C)c2cnc(Nc3ccc(N4CCN(CC(=O)NCCOCCOCCOCCOCCOCCNc5cccc(C(=O)Nc6nc(C)c(C)s6)c5C)CC4)cn3)nc2n(C2CCCC2)c1=O has inhibition at 0.2 µM of > 80%

* * *

- system: CDK4 (Homo sapiens)
- Construct: endogenous in cells; host or cells: Calu-1
- measurement-description: CDK4 percentage degradation in Calu-1 cells (immunoblotting)
- Format: cell-based
- condition-summary: Calu-1 cells, 200 nM, 16 hours; read-out: CDK4 Degradation (200 nM)
quantity-kind: inhibition at 0.2 µM

| compound | quantity-kind | test-value |
| --- | --- | --- |
| CC(=O)c1c(C)c2cnc(Nc3ccc(N4CCN(CC(=O)NCCOCCOCCOCCOCCOCCNc5ccc(C(=O)Nc6nc(C)c(C)s6)c(C)c5)CC4)cn3)nc2n(C2CCCC2)c1=O | inhibition at 0.2 µM | > 80% |
| CC(=O)c1c(C)c2cnc(Nc3ccc(N4CCN(CC(=O)NCCOCCOCCOCCOCCOCCOCCNc5ccc(C)c(C(=O)Nc6nc(C)c(C)s6)c5)CC4)cn3)nc2n(C2CCCC2)c1=O | inhibition at 0.2 µM | > 80% |
| CC(=O)c1c(C)c2cnc(Nc3ccc(N4CCN(CC(=O)NCCOCCOCCC(=O)Nc5ccc(Cl)cc5C(=O)Nc5nc(C)c(C)s5)CC4)cn3)nc2n(C2CCCC2)c1=O | inhibition at 0.2 µM | < 30% |
| CCCCNc1ccc(C(=O)Nc2nc(C)c(C)s2)c(NC(=O)CCOCCOCCNC(=O)CN2CCN(c3ccc(Nc4ncc5c(C)c(C(C)=O)c(=O)n(C6CCCC6)c5n4)nc3)CC2)c1 | inhibition at 0.2 µM | 50 to 80% |
| CNc1ccc(C(=O)Nc2ccc(OC)nn2)c(NC(=O)CCOCCOCCNC(=O)CN2CCN(c3ccc(Nc4ncc5c(C)c(C(C)=O)c(=O)n(C6CCCC6)c5n4)nc3)CC2)c1 | inhibition at 0.2 µM | > 80% |

Per the reported CDK4 (Homo sapiens) data, CC(=O)c1c(C)c2cnc(Nc3ccc(N4CCN(CC(=O)NCCOCCOCCOCCOCCNc5ccc(C)c(C(=O)Nc6nc(C)c(C)s6)c5)CC4)cn3)nc2n(C2CCCC2)c1=O has inhibition at 0.2 µM of < 30%

Per the reported CDK4 (Homo sapiens) data, COc1ccc(NC(=O)c2ccccc2NC(=O)CCOCCOCCNC(=O)CN2CCN(c3ccc(Nc4ncc5c(C)c(C(C)=O)c(=O)n(C6CCCC6)c5n4)nc3)CC2)nn1 has inhibition at 0.2 µM of > 80%
